Reported selectivity ratio values are given for each entry in this list.
Test: Selectivity index, ratio of CTD50 for African green monkey Vero cells to EC50 for Human coxsackievirus B4 Powers
Type: toxicity, cell-based
quantity measured: selectivity ratio

molecule smiles: OC[C@H]1[C@@H]2C[C@H](n3cnc4c(NC5CC5)ncnc43)[C@H]1C[C@@H]2Cl
quantity measured: selectivity ratio
meas value: 15

molecule smiles: CCN(CC)CCNc1ncnc2c1ncn2[C@H]1C[C@H]2[C@H](CO)[C@@H]1C[C@@H]2Cl
quantity measured: selectivity ratio
meas value: 2

molecule smiles: O=c1ccn([C@H]2C[C@H]3[C@H](CO)[C@@H]2C[C@@H]3Cl)c(=O)[nH]1
quantity measured: selectivity ratio
meas value: 1

molecule smiles: CCOc1ncnc2c1ncn2[C@H]1C[C@H]2[C@H](CO)[C@@H]1C[C@@H]2Cl
quantity measured: selectivity ratio
meas value: 2

molecule smiles: CCN(CC)c1ncnc2c1ncn2[C@H]1C[C@H]2[C@H](CO)[C@@H]1C[C@@H]2Cl
quantity measured: selectivity ratio
meas value: 2

molecule smiles: OC[C@H]1[C@@H]2C[C@H](n3cnc4c(NC5CCCC5)ncnc43)[C@H]1C[C@@H]2Cl
quantity measured: selectivity ratio
meas value: 1

molecule smiles: CN1CCN(c2ncnc3c2ncn3[C@H]2C[C@H]3[C@H](CO)[C@@H]2C[C@@H]3Cl)CC1
quantity measured: selectivity ratio
meas value: 3

molecule smiles: OC[C@H]1[C@@H]2C[C@H](n3cnc4c(NCc5ccncc5)ncnc43)[C@H]1C[C@@H]2Cl
quantity measured: selectivity ratio
meas value: 2
